Origin of measurements: the Immune Epitope Database (IEDB)

study target: HLA-A*03:01
assay details: IEDB peptide-MHC binding, purified MHC/direct/fluorescence; filed as Kd, often an IC50 or EC50 that approximates it; bounds were set here for any values at or beyond the usual limits of such assays
conditions used: source organism: Tai Forest virus - Cote d'Ivoire, Cote d'Ivoire, 1994
value type: Kd

Enter reported Kd observed with HLA-A*03:01 for FAEGVIAFL
≥ 20 µM

---

study target: HLA-A*01:01
assay details: IEDB peptide-MHC binding, purified MHC/direct/fluorescence; filed as Kd, often an IC50 or EC50 that approximates it; bounds were set here for any values at or beyond the usual limits of such assays
conditions used: source organism: Francisella tularensis subsp. holarctica LVS
value type: Kd

Can you share its Kd? I mean this sequence: FQVNRFTGY
≥ 20 µM

Others:
Given the sequence IYTVIYYIF , what is its reported Kd?
≥ 20 µM

---

Each entry below carries its reported Kd.
study target: HLA-B*57:01
assay details: IEDB peptide-MHC binding, purified MHC/competitive/radioactivity; filed as Kd, often an IC50 or EC50 that approximates it; bounds were set here for any values at or beyond the usual limits of such assays
conditions used: source organism: Dengue virus 3 Martinique/1243/1999
Express the result in nM but write the number alone.

Some solved cases for reference:
Form field: reported Kd of PTAGVLARW
29.7

What value of measured Kd is listed for VASEGIKYTD ?
5160

Okay, now this sequence:
Bench note: what Kd did IASAIVLEFF show?
883

---

study target: HLA-A*02:02
assay details: IEDB peptide-MHC binding, purified MHC/competitive/radioactivity; filed as Kd, often an IC50 or EC50 that approximates it; bounds were set here for any values at or beyond the usual limits of such assays
conditions used: source organism: SARS coronavirus Tor2
Each item that follows carries a reported log10 Kd.
Field: value | Transform: log10 | Quantity: Kd | Unit: nM

Before answering, review these 4 worked examples.
Looking for the measured log10 Kd of MVMCGGSLYV , can you help?
1.18

Need log10 Kd, item FLNRFTTTL
-0.18

Sample MLIIFWFSL — what was its log10 Kd?
2.12

Return reported log10 Kd; argument: YQCGHYTHI
1.86

***
Endpoint output: log10 Kd of FLCLFLLPSL . Value?
-0.27

Suppose we examine the sequence FLYIIKLVFL ; what log10 Kd value has been reported?
0.86

Given the sequence TLLCVLAALV , what is its reported log10 Kd?
0.66

---

study target: HLA-B*40:02
assay details: IEDB peptide-MHC binding, purified MHC/competitive/radioactivity; filed as Kd, often an IC50 or EC50 that approximates it; bounds were set here for any values at or beyond the usual limits of such assays
conditions used: source organism: Mammarenavirus lassaense
value type: pKd
Answer as the number alone; pKd is minus log10 of concentration in mol/L.

I'd like to know its pKd. The sequence in question is GEPKESTPM
6.72

---

study target: HLA-A*02:03
assay details: IEDB peptide-MHC binding, purified MHC/competitive/radioactivity; filed as Kd, often an IC50 or EC50 that approximates it; bounds were set here for any values at or beyond the usual limits of such assays
conditions used: source organism: SARS coronavirus Tor2
pKd: −log10 of the molar value.
Assign rule met to entries whose pKd meets or exceeds 8; assign rule not met to the rest.

Exam item: decide whether the reported pKd for FLCLFLLPSL is at least 8.
rule met

Is pKd at least 8? Consider FLYIIKLVFL
rule not met

Is pKd at least 8? Consider TLLCVLAALV
rule not met

Is pKd at least 8? Consider MLIIFWFSL
rule not met

Assess whether reported pKd for FLNRFTTTL sits at 8 or higher.
rule met
